- Tested on: Giardia intestinalis
- EXPERIMENT_NOTES: Giardicidal activity against Giardia intestinalis IMSS isolate incubated for 48 hrs by hemocytometric counting method
- Assay type: functional, organism-based
- CONDITION_LABEL: Giardia duodenalis
EXPERIMENTAL_ENDPOINT: IC50 (nM)
Only the number, expressed in nM, is required.

Ask: Suppose we examine the compound COc1ccc2[nH]c([S+]([O-])Cc3ncc(C)c(OC)c3C)nc2n1 (stereo not given) [TENATOPRAZOLE] ; what IC50 value has been reported?
Result: 20

Ask: Subsequent entry: CCOC(=O)Nc1nc2ccccc2[nH]1 [LOBENDAZOLE]
Result: 37

Ask: Next record, please: CCOc1ccc2nc(SCCN3CCOCC3)[nH]c2c1 [FABOMOTIZOLE]
Result: 29

Ask: Can you check CC(C)Oc1ccc2c(=O)c(-c3ccccc3)coc2c1 [IPRIFLAVONE] next?
Result: 25

Ask: And CC(=O)Oc1ccccc1C(=O)Nc1ncc([N+](=O)[O-])s1 [NITAZOXANIDE] ?
Result: 15
